Recorded values, source patent US12377083B2.

Molecular target: hLPAR1 (human lysophosphatidic acid receptor 1) (Homo sapiens, UniProt Q92633)
Sequence (Q92633 whole entry): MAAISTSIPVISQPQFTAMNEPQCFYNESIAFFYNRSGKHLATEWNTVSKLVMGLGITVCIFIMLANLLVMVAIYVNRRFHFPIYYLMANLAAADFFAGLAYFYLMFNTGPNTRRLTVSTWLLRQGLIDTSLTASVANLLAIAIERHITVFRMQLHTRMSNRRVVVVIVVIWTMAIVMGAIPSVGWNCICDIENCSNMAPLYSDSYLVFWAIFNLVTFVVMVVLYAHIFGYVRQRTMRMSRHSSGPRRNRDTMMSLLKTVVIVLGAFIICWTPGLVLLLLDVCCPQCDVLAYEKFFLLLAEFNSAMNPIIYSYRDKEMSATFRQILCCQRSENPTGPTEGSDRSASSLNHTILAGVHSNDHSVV
Assay: FLIPR assay of intracellular calcium increase induced by activation of hLPAR1 expressed in CHO-K1 cells
Format: cell-based
Settings: CHO-K1 cells expressing hLPAR1, agonist oleoyl-L-α-lysophosphatidic acid 1 μM; read-out: LPAR1 IC50
For each entry below, report its IC50 value.

The recorded IC50 for entry CN(C(=O)OCc1ocnc1-c1ccc(O[C@H]2CCC[C@H](C(=O)O)C2)c(C(F)(F)F)n1)C1CCCC1 (racemic) equals 300 to 10000 nM

The recorded IC50 for entry Cc1nc(-c2cnn(C)c2COC(=O)N(C)C2CCCC2)ccc1O[C@H]1CCC[C@H](C(=O)O)C1 (racemic) equals < 50 nM

The recorded IC50 for entry Cc1nc(-c2ccn(C)c2COC(=O)N(C)C2CCCC2)ccc1O[C@H]1CCC[C@H](C(=O)O)C1 (racemic) equals < 50 nM

The recorded IC50 for entry Cc1noc(-c2ccc(C3(C(=O)O)CC3)cc2)c1NC(=O)O[C@H](C)c1ccccc1 equals 300 to 10000 nM

The recorded IC50 for entry Cc1cnn(-c2ccc(O[C@H]3CCC[C@H](C(=O)O)C3)cc2)c1COC(=O)N(C)C1CCCC1 (racemic) equals < 50 nM

The recorded IC50 for entry CN(CC1CCCC1)C(=O)OCc1c(-c2ccc(O[C@H]3CCC[C@H](C(=O)O)C3)c(C#N)n2)cnn1C equals 50 to 300 nM

The recorded IC50 for entry Cc1onc(-c2cnc(O[C@H]3CCC[C@H](C(=O)O)C3)c(F)n2)c1COC(=O)N(C)C1CCCC1 (racemic) equals < 50 nM
